assay.target: T1, huCD33-R69 stably expressed on Jurkat cells (human, UniProt P20138 18-364)
T1 construct: whole, on cells; >200,000 receptors per cell; also called CD33 WT; CD33^ARG69
T1 sequence (P20138 18-364): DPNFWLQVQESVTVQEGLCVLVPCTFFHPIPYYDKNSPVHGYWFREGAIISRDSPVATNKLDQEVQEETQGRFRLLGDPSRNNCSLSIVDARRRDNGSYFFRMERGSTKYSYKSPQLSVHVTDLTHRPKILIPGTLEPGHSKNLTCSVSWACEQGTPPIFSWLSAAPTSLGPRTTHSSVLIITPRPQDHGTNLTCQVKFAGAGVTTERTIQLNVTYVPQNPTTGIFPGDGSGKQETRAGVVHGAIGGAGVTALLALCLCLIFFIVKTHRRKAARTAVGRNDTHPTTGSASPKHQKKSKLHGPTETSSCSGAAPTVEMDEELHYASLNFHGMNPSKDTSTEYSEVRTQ
experimental.details: FACS on cells;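 also: fixed Jurkat lines probed with myc-tagged scFv periplasmic extracts, anti-myc PE flow cytometry, PE MFI fold binned − <2, + 2–10, ++ 10–30, +++ >30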
parameter: FACS geometric mean fold change over Jurkat parental

Exam item: Given Polypeptide No. 193 (scFv, V domains shown, scFv) VH: EVQLLESGGGLVQPGGSLRLSCAASGFTFSNSDMNWVRQAPGKGLEWVSYISGTGSTIYYADSVKGRFTISRDNSKNTLYLQMNSLRAEDTAVYYCAKDYDSSYGSGYYGMDVWGQGTTVTVSS VL: DIQMTQSPSSLSASVGDRVTITCRASQSIYNYLNWYQQKPGKAPKLLIYAASNLQSGVPSRFSGSGSGTDFTLTISSLQPEDFATYYCQQYGNAPLTFGQGTKVEIKR , state its recorded FACS geometric mean fold change over Jurkat parental.
Marked response: > 30 fold

Exam item: Given Polypeptide No. 118 (scFv, V domains shown, scFv) VH: EVQLVESGGGLVKPGGSLRLSCAASGFTISNAWMSWVRQAPGKGLEWVAHIWNDGSQKYYADSVKGRFTISRDDSKNTLYLQMNSLKTEDTAVYYCARDGALGVGPDDYWGQGTLVTVSS VL: DIVMTQSPLSLPVTPGEPASISCRSSQSLLHSNGYNYLDWYLQKPGQSPQLLIYAASSLQSGVPDRFSGSGSGTDFTLKISRVEAEDVGVYYCMQGLQTPHTFGGGTKVEIKR , state its recorded FACS geometric mean fold change over Jurkat parental.
Marked response: 10 to 30 fold

Exam item: Given Polypeptide No. 109 (scFv, V domains shown, scFv) VH: QVQLVQSGAEVKKPGSSVKVSCKASGYTFTTYGISWVRQAPGQGLEWMGWMNPNSGNTGYAQKFQGRVTITADESTSTAYMELSSLRSEDTAVYYCAREGGDGDYPDYWGQGTLVTVSS VL: EIVMTQSPATLSVSPGERATLSCRASQSISSSSLAWYQQKPGQAPRLLIYGASTRATGIPARFSGSGSGTEFTLTISSLQSEDFAVYYCQQYETAPYTFGQGTKLEIKR , state its recorded FACS geometric mean fold change over Jurkat parental.
Marked response: 10 to 30 fold

Exam item: Given Polypeptide No. 99 (scFv, V domains shown, scFv) VH: QVQLVQSGAEVKKPGSSVKVSCKASGYTFSDYHIHWVRQAPGQGLEWMGWMNPNSGNTGYAQKFQGRVTITADESTSTAYMELSSLRSEDTAVYYCARTHSSGYYYWFDPWGQGTLVTVSS VL: DIQMTQSPSSLSASVGDRVTITCRASQGISNNLNWYQQKPGKAPKLLIYQASNKDTGVPSRFSGSGSGTDFTLTISSLQPEDFATYYCQQSYSSPPTFGQGTKVEIKR , state its recorded FACS geometric mean fold change over Jurkat parental.
Marked response: > 30 fold

Exam item: Given Polypeptide No. 131 (scFv, V domains shown, scFv) VH: QVQLVQSGAEVKKPGASVKVSCKASGGTFSNYAINWVRQAPGQGLEWMGWINPNSGGTDSAQKFQGRVTMTRDTSTSTVYMELSSLRSEDTAVYYCARDSSLALSYGGNSEYYYGMDVWGQGTTVTVSS VL: DIQMTQSPSSLSASVGDRVTITCQASQDISDHLNWYQQKPGKAPKLLIYGASTLQSGVPSRFSGSGSGTDFTLTISSLQPEDFATYYCQQAYSFPWTFGQGTKLEIKR , state its recorded FACS geometric mean fold change over Jurkat parental.
Marked response: > 30 fold
